study_system: T1, recombinant Sis1 (S. cerevisiae, UniProt P25294 1-352)
T1 construct: Sis1, yeast Hsp40 co-chaperone; also called Hsp40 co-chaperone Sis1; source: recombinantly expressed and purified
T1 sequence (looked up): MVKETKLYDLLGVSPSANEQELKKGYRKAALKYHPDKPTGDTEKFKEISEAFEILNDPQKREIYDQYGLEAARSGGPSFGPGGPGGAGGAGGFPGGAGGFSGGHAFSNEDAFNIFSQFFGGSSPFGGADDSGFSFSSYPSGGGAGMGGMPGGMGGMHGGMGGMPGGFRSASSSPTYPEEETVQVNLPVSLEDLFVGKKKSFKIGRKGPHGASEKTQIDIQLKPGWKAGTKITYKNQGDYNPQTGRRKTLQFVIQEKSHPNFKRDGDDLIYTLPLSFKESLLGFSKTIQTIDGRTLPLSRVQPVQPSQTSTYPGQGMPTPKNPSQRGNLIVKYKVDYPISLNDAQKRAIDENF
assay_procedure: fluorescence polarisation; fluorescence anisotropy titration, 2 µM TAMRA-labeled peptide with increasing concentrations of Ssa1 or Sis1, 30 °C; Kd from hyperbolic regression of the difference in anisotropy
protocol_conditions: both partners purified
pKd: −log10 of the molar value. Ends that are not written are not given here.
readout_kind: pKd

INSERT INTO measurements (binder, readout_value) VALUES
  ('MFSRLSRSHSKALPIALGTVAIAAATAFYFANRNQHSFV (peptide, UniProt P36060 1-39, looked up, also: TAMRA label, position not given here, Mcr1, residues 1-39, contain the transmembrane segment; synthesis as in Jores et al., 2016; also called Mcr1(TMS); Mcr1-TMS peptide; source: synthetic peptide) [TAMRA-labeled Mcr1 peptide, residues 1-39]', 4.59),
  ('MKSFITRNKTAILATVAATGTAIGAYYYYNQL (peptide, UniProt P07213 1-32, looked up, also: TAMRA label, position not given here, Tom70, residues 1-32, contain the transmembrane segment; synthesis as in Jores et al., 2016; also called Tom70(TMS); TMS-labelled peptide of Tom70; source: synthetic peptide) [TAMRA-labeled Tom70 peptide, residues 1-32]', 4.74);
